target: Claudin18.2-His protein (human); experiment: indirect ELISA on coated Claudin18.2-His
# EC50 values compiled below
Your answer is read as µg/mL, so omit the unit and give the number.

Some entries whose results are on file:
binder="260F8A6 (antibody, V domains shown) VH: QAYLQQSGAELVRSGASVKMSCRASGYTFTSHNMHWVKQTPGQGLEWIGYIYPGNGNTYYNQKFKGKATLTADTSSNTAYMQINSLTSEDSAVYFCVRDYYGNSFVYWGQGTLVTVSA VL: DVVMTQSPSSLTEKTGEKVSMSCKSSQSLLNSGNQKNYLTWYQQKPGQPPKLLIYWASTRESGVPDRFIGSGSGTDFTLTISSLQTEDLAVYYCQNNYMYPFTFGAGTKLELK" value_type=EC50 observed_value=0.0151
binder="418B8B10 (antibody, V domains shown) VH: DVQLVESGGGLVQPGGSRKLSCAASGFTFSSFGMHWVRQAPEKGLEWVAYISSGSSPIYYTDTVKGRFTISRDNPKNTLFLQMTSLRSEDTAMYFCARFYYGNSFDHWGQGTLVTVSA VL: DIVMTQSPSSLTVTAGEKVSMSCKSSQSLFNRGNQKSYLTWYQQRPGQPPKLLIYWASTRESGVPDRFTGSGSGTDFTLTISSVQAEDLAVYYCQNNYIYPLTFGAGTKLELK" value_type=EC50 observed_value=0.00887
binder="234C9G5 (antibody, V domains shown) VH: QAYLQQSGAELVRSGASVKMSCKASGYAFTSHNMHWVKQTPGQGLEWIGYISPGNGYTNYNQKFRGKATLTADTSSSTAYMQIGSLTSEDSAVYFCTRDYYGNSFAYWGQGTLVTVSA VL: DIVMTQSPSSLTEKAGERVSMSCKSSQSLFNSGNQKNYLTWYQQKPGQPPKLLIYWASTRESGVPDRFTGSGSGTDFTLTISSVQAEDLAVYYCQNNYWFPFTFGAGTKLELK" value_type=EC50 observed_value=0.0387
binder="407H12E6 (antibody, V domains shown) VH: DVQLVESGGGLVQPGGSRKLSCAASGFTVSSFGMHWVRQAPEKGLEWVAYISSGSSPIYYADTVKGRFTISRDNPKNTLFLQMTSLRSEDTAIYFCARFYYGNSFDHWGQGTLVTVSA VL: DIVMTQSPSSLTVTTGEKVTMSCKSSQSLLNSGNQKNYLTWYQQKPGQSPKLLIYWASTRESGVPDRFTGSGSGTDFTLTISSVQTEDLAVYFCQNNYFFPLTFGAGTKLELK" value_type=EC50 observed_value=0.126

Okay, next one:
query: Bench note: what EC50 did 240A8E7 (antibody, V domains shown) VH: QAYLQQSGAELVRSGASVKMSCKASGYTFTNYNIHWVKQTPGQGLEWIGYIYPGNGDNYYNQKFKGKATLTADTSSSTAYMQISSLTSEDSAVYFCARDYYGNSFAYWGQGTLVTVSA VL: DVVMTQSPSSLTVTAGEKVTMNCKSSQSLLNSGNQKNYLTWYQQKPGQPPKMLIYWASTRESGVPDRFTGSGSGTDFTLTISSVQAEDLAIYYCQNDYYYPFTFGAGTKLELK show?
result: 0.0145

Source listed as patent US20220073643A1.
